All figures here come from ChEMBL document CHEMBL1157659.

assay: Clearance in Sprague-Dawley rat at 1 mg/kg, iv; type: ADME, organism-based; set-up: dose 1 mg/kg, route intravenous; conditions: in vivo
PROPERTY: clearance (mL/min/kg)
Give bare numbers, in mL/min/kg.

Here are 3 compounds together with their reported answers.
{"GIVEN_SMILES": "CCCOCCn1c(=O)c(NCCNCCO)nc2cnc(-c3ccc(OC)nc3)cc21", "PROPERTY": "clearance", "UNIT_ANNOTATION": "mL/min/kg", "RECORDED_MEASUREMENT": 582}
{"GIVEN_SMILES": "CCCOCCn1c(=O)c(N2CCN(CCO)CC2)nc2cnc(-c3ccc(OC)nc3)cc21", "PROPERTY": "clearance", "UNIT_ANNOTATION": "mL/min/kg", "RECORDED_MEASUREMENT": 37}
{"GIVEN_SMILES": "CCCOCCn1c(=O)c(NCCN)nc2cnc(-c3ccc(OC)nc3)cc21", "PROPERTY": "clearance", "UNIT_ANNOTATION": "mL/min/kg", "RECORDED_MEASUREMENT": 170}

Q: Tell me the measured clearance of CCCOCCn1c(=O)c(N2CCNCC2)nc2cnc(-c3ccc(OC)nc3)cc21 , please.
Ans: 42

###

target: cGMP-inhibited 3',5'-cyclic phosphodiesterase 3A (Homo sapiens)
Sequence (Q14432 whole entry): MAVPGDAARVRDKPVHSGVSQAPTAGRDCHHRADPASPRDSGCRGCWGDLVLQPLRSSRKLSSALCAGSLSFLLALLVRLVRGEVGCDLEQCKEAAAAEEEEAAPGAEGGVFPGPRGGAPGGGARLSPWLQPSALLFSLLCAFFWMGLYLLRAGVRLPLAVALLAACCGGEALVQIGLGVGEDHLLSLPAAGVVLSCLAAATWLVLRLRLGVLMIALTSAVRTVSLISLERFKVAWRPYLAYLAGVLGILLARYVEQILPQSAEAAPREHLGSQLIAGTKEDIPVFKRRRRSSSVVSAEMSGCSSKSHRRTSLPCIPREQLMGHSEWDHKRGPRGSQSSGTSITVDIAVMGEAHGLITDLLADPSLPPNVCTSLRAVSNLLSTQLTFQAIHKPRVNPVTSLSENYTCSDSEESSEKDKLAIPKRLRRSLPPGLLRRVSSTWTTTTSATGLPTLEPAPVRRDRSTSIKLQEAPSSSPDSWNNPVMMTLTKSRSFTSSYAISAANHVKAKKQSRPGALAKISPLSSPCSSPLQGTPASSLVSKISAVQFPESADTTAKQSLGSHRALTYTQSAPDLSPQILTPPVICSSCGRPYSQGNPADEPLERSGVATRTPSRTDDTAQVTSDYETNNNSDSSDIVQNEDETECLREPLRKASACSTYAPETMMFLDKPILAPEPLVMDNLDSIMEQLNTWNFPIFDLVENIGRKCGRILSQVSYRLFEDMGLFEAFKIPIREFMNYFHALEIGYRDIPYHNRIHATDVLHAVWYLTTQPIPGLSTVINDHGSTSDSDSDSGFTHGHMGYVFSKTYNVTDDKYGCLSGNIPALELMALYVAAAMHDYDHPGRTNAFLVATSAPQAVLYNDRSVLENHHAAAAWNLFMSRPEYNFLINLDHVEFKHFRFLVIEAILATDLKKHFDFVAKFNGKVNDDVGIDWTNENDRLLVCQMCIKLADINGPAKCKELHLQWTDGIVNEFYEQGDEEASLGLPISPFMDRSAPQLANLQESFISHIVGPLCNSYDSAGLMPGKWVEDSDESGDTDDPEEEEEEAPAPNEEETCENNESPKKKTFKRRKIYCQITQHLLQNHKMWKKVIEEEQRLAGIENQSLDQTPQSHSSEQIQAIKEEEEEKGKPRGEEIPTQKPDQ
pIC50: −log10 of the molar value.
PROPERTY: pIC50

Q: Tell me the measured pIC50 of CCCOCCn1c(=O)c(N2CCN(CCO)CC2)nc2cnc(-c3ccc(OC)nc3)cc21 , please.
Ans: < 5.70

###

assay: Plasma protein binding in rat; format: ADME, cell-free; settings: read-out: PPB (converted)
Exercise: state measured fraction unbound for each of the compounds provided.
Answers are plain numbers.

Here are 3 compounds together with their reported answers.
{"GIVEN_SMILES": "CCCOCCn1c(=O)c(NCCNCCO)nc2cnc(-c3ccc(OC)nc3)cc21", "fraction unbound": 0.226}
{"GIVEN_SMILES": "CCCOCCn1c(=O)c(N2CCNCC2)nc2cnc(-c3ccc(OC)nc3)cc21", "fraction unbound": 0.158}
{"GIVEN_SMILES": "CCCOCCn1c(=O)c(N2CCN(CCO)CC2)nc2cnc(-c3ccc(OC)nc3)cc21", "fraction unbound": 0.171}

With those in mind, consider the next compound.
Q: Tell me the measured fraction unbound of CCCOCCn1c(=O)c(NCCN)nc2cnc(-c3ccc(OC)nc3)cc21 , please.
Ans: 0.166

###

Exercise: state measured fraction unbound for each of the compounds provided.
test: Fraction unbound in rat plasma; type: ADME, cell-free

{"COMPOUND": "CCCOCCn1c(=O)c(N2CCN(CCO)CC2)nc2cnc(-c3ccc(OC)nc3)cc21 [PF-03049423]", "fraction unbound": 0.18}

For each of the items listed, what is its fraction unbound?
1. CCCOCCn1c(=O)c(NCCNCCO)nc2cnc(-c3ccc(OC)nc3)cc21
2. CCCOCCn1c(=O)c(NCCN)nc2cnc(-c3ccc(OC)nc3)cc21

Ans:
1: 0.18; 2: 0.18

###

experiment: Metabolic stability in human microsomes assessed as compound remaining after 30 mins; format: ADME, Microsome; details: read-out: Stability
PROPERTY: remaining at 0.5 h (%)
Give bare numbers, in %.

{"GIVEN_SMILES": "CCCOCCn1c(=O)c(NCCN)nc2cnc(-c3ccc(OC)nc3)cc21", "UNIT_ANNOTATION": "%", "remaining at 0.5 h": 97}

For each of the items listed, what is its remaining at 0.5 h?
1. CCCOCCn1c(=O)c(NCCNCCO)nc2cnc(-c3ccc(OC)nc3)cc21
2. CCCOCCn1c(=O)c(N2CCN(CCO)CC2)nc2cnc(-c3ccc(OC)nc3)cc21
3. CCCOCCn1c(=O)c(N2CCNCC2)nc2cnc(-c3ccc(OC)nc3)cc21

Ans:
1. 95
2. 85
3. 86

###

Exercise: state measured Ratio IC50 for each of the compounds provided.
organism: Homo sapiens; assay: Selectivity ratio of IC50 for human recombinant PDE11 to IC50 for human platelet PDE5

Here are 6 compounds together with their reported answers.
{"COMPOUND": "CCCOCCn1c(=O)c(N2CCN([C@@H](C)[C@@H](C)O)CC2)nc2cnc(-c3ccc(OC)nc3)cc21 (racemic)", "Ratio IC50": 1740}
{"COMPOUND": "CCCOCCn1c(=O)c(N2CCN(CCCO)CC2)nc2cnc(-c3ccc(OC)nc3)cc21", "Ratio IC50": 4260}
{"COMPOUND": "CCCOCCn1c(=O)c(N2CCCN(CCCO)CC2)nc2cnc(-c3ccc(OC)nc3)cc21", "Ratio IC50": "> 1860"}
{"COMPOUND": "CCCOCCn1c(=O)c(N2CCN(CC(C)(C)O)CC2)nc2cnc(-c3ccc(OC)nc3)cc21", "Ratio IC50": 1370}
{"COMPOUND": "CCCOCCn1c(=O)c(N2CCN([C@H](C)[C@@H](C)O)CC2)nc2cnc(-c3ccc(OC)nc3)cc21 (racemic)", "Ratio IC50": 2090}
{"COMPOUND": "CCCOCCn1c(=O)c(N2CCCN(CCO)CC2)nc2cnc(-c3ccc(OC)nc3)cc21", "Ratio IC50": "> 2780"}

With those in mind, consider the next compound.
Q: Tell me the measured Ratio IC50 of CCCOCCn1c(=O)c(NCCN)nc2cnc(-c3ccc(OC)nc3)cc21 , please.
Ans: > 8000

###

biological target: 3',5'-cyclic-AMP phosphodiesterase 4B (Homo sapiens)
Sequence (Q07343 whole entry): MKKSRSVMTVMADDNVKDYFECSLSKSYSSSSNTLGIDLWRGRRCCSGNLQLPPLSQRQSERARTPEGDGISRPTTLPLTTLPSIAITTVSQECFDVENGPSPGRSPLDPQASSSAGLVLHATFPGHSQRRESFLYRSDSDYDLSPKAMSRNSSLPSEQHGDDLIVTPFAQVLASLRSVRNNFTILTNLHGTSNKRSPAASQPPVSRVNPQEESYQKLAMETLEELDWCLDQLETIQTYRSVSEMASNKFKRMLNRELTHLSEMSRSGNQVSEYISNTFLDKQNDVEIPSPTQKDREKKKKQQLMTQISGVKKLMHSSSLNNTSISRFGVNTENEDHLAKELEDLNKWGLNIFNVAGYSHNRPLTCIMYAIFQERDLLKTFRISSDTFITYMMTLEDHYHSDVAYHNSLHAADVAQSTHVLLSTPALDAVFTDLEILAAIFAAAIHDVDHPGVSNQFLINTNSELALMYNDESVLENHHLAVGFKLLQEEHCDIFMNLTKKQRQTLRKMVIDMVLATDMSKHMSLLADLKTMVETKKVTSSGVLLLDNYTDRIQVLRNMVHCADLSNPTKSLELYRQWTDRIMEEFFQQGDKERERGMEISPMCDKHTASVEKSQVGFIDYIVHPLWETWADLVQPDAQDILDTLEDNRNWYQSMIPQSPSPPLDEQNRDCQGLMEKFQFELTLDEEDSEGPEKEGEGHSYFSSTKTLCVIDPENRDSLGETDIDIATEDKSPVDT
PROPERTY: IC50

Q: Tell me the measured IC50 of CCCOCCn1c(=O)c(N2CCN(CCO)CC2)nc2cnc(-c3ccc(OC)nc3)cc21 [PF-03049423] , please.
Ans: > 2 µM

###

species: Homo sapiens; assay: Selectivity ratio of IC50 for human retina PDE6 to IC50 for human platelet PDE5
Exercise: state measured Ratio IC50 for each of the compounds provided.

{"COMPOUND": "CCCOCCn1c(=O)c(NCCNCCO)nc2cnc(-c3ccc(OC)nc3)cc21", "Ratio IC50": 242}
{"COMPOUND": "CCCOCCn1c(=O)c(N2CCN(C[C@H](C)O)CC2)nc2cnc(-c3ccc(OC)nc3)cc21", "Ratio IC50": 49}
{"COMPOUND": "CCCOCCn1c(=O)c(NCCN)nc2cnc(-c3ccc(OC)nc3)cc21", "Ratio IC50": 4840}
{"COMPOUND": "CCCOCCn1c(=O)c(N2CCCN(CCCO)CC2)nc2cnc(-c3ccc(OC)nc3)cc21", "Ratio IC50": 94}

For each of the items listed, what is its Ratio IC50?
1. CCCOCCn1c(=O)c(N2CCN(CCO)CC2)nc2cnc(-c3ccc(OC)nc3)cc21 [PF-03049423]
2. CCCOCCn1c(=O)c(N2CCN(CC(C)(C)O)CC2)nc2cnc(-c3ccc(OC)nc3)cc21
3. CCCOCCn1c(=O)c(N2CCN(CCCO)CC2)nc2cnc(-c3ccc(OC)nc3)cc21
4. CCCOCCn1c(=O)c(N2C[C@H]3C[C@@H]2CN3)nc2cnc(-c3ccc(OC)nc3)cc21
5. CCCOCCn1c(=O)c(N2CCN([C@H](C)[C@@H](C)O)CC2)nc2cnc(-c3ccc(OC)nc3)cc21 (racemic)

Ans:
1: 158; 2: 64; 3: 62; 4: 93; 5: 68

###

test: Metabolic stability in cannulated Sprague-Dawley rat bile duct assessed as compound remaining after 6 hrs; type: ADME; details: read-out: Stability
PROPERTY: remaining at 6 h (%)
Give bare numbers, in %.

Q: Tell me the measured remaining at 6 h of CCCOCCn1c(=O)c(N2CCN(CCO)CC2)nc2cnc(-c3ccc(OC)nc3)cc21 , please.
Ans: 2

###

species on record: Homo sapiens; assay: Selectivity ratio of IC50 for human retina PDE6 to IC50 for human platelet PDE5
PROPERTY: Ratio IC50
Numbers only.

{"MOLECULE": "CCCOCCn1c(=O)c(N2CCN([C@@H](C)[C@@H](C)O)CC2)nc2cnc(-c3ccc(OC)nc3)cc21 (racemic)", "Ratio IC50": 134}
{"MOLECULE": "CCCOCCn1c(=O)c(N2CCCN(CCO)CC2)nc2cnc(-c3ccc(OC)nc3)cc21", "Ratio IC50": 70}

With those in mind, consider the next molecule.
Q: Tell me the measured Ratio IC50 of CCCOCCn1c(=O)c(N2CCN(C[C@@H](C)O)CC2)nc2cnc(-c3ccc(OC)nc3)cc21 , please.
Ans: 134

###

biological target: High affinity cAMP-specific and IBMX-insensitive 3',5'-cyclic phosphodiesterase 8A (Homo sapiens)
Sequence (O60658 whole entry): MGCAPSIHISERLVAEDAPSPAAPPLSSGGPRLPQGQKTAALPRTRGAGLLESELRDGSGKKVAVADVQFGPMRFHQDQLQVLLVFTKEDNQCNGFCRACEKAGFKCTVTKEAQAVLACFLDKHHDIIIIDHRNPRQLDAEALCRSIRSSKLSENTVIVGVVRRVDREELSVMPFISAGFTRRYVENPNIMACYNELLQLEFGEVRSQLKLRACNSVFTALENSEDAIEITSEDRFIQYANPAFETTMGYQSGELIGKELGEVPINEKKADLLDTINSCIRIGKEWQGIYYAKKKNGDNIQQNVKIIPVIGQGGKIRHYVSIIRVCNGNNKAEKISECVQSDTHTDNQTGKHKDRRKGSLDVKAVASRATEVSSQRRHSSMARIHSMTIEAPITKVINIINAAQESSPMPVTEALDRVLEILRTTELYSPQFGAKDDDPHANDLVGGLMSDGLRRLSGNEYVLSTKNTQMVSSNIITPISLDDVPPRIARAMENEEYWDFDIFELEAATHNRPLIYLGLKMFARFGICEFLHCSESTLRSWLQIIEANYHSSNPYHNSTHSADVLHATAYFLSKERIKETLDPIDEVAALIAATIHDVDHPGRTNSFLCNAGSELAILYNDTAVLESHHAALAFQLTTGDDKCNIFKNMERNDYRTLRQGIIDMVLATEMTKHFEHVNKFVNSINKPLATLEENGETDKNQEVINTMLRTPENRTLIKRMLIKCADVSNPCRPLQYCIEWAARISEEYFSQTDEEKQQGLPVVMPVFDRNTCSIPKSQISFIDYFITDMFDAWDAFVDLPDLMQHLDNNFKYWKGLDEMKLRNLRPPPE
PROPERTY: IC50

Q: Tell me the measured IC50 of CCCOCCn1c(=O)c(N2CCN(CCO)CC2)nc2cnc(-c3ccc(OC)nc3)cc21 [PF-03049423] , please.
Ans: > 2000 nM
